# tested-on: CALRins5 (mutant calreticulin, 5 base pair insertion, Type 2) expressed with MPL on engineered cancer cells (UniProt P27797)
# Sequence (P27797 other isoform, or with tags, fused parts or gaps mutant limits assumed): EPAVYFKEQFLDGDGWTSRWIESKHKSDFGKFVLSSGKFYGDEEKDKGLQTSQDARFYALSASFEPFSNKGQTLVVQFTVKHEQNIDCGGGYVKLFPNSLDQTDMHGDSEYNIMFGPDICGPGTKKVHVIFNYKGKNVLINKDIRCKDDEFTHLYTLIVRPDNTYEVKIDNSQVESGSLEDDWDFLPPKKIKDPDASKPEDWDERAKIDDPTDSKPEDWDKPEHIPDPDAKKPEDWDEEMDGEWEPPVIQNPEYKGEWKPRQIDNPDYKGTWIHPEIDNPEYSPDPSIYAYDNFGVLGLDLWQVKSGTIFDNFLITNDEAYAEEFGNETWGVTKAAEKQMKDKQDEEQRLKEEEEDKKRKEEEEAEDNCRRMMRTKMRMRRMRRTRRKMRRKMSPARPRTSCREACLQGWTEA
# method: cell-based or functional assay
readout: Cytotoxicity EC50, K562 MPL CALRins5 cells (µg/mL)

binder	val
CALRB116 (MP1007 Fab x CD3W245-HL-scFv, high affinity) (bispecific antibody, part only; not given: anti-CD3 scFv arm, constant regions, V domains shown, not shown: another chain or arm of the molecule; a dimerising Fc or GST; small tags and cut ends) VH: QQLEESGGRLVAPGTPLRLTCTVSGIDLSNNAVSWVRQAPGKGLEYIGVIGNTGTTYYANWAKGRFTISKTSSTTVDLKMTSLTTDDTATYFCVRGPPSYSNSVRNIWGPGTLVTVSS VL: DPMLTQTPSSVSAAVGGTVTIGCQSSQSVYDNNWLSWYQQKPGQPPNRLIYDASKLASGVPSRFSGSGSGTQFTLTISGVKSDDAATYYCAGGYTGNVYSFGGGTMVEIK	0.0953
CALRB78 (MP1016C Fab x CD3W245-LH-scFv, medium affinity) (bispecific antibody, part only; not given: anti-CD3 scFv arm, constant regions, V domains shown, not shown: another chain or arm of the molecule; a dimerising Fc or GST; small tags and cut ends) VL: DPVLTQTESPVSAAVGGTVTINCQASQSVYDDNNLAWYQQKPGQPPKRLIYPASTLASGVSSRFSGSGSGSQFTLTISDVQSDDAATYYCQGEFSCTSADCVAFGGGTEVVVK VH: QEQLKESGGRLVTPGTPLTLTCTASGFSLSNYYMSWVRQAPGKGLEWIGGISSRAGTWYASWAKGRFTISGTSSTTMDLKITSPTTEDTATYFCARGLKIWGPGTLVTVSS	0.0648
CALRB114 (MP1001 Fab x CD3W245-HL-scFv, high affinity) (bispecific antibody, part only; not given: CD3 scFv arm and IgG1 constant regions, V domains shown, not shown: another chain or arm of the molecule; a dimerising Fc or GST; small tags and cut ends) VH: QEQLKESGGRLVTPGTPLTLTCAVSGFSLDIYGMSWVRQAPGKGLEWIGIIYIEGITYYANWAKGRFTISKTSSTTLELKMTSLTTEDTAMYFCVAGVGRIWGPGTLVTVSS VL: YVMMTQTPSSVSAAVGGTVTINCQASQSLYNNNNLAWFQQKPGQPPKRLIYPASTLASGVSSRFKGSGSGTQFTLTISDVQSDDAATYFCLGEFSCSSADCYAFGGGTEVVVK	0.0163
CALRB119 (MP1016 Fab x CD3W245-HL-scFv, high affinity) (bispecific antibody, part only; not given: anti-CD3 scFv arm, constant regions, V domains shown, not shown: another chain or arm of the molecule; a dimerising Fc or GST; small tags and cut ends) VL: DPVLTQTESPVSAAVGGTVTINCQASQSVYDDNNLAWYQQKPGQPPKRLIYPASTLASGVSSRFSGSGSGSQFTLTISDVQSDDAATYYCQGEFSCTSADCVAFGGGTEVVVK VH: QEQLKESGGRLVTPGTPLTLTCTASGFSLSNYYMSWVRQAPGKGLEWIGGISSRAGTWYASWAKGRFTISGTSTTMDLKITSPTTEDTATYFCARGLKIWGPGTLVTVSS	0.0104

Measured values drawn from patent US20260125457A1 for this set.
